test system: 429239-143-T-J1-PDC complex spheroid viability; test: Anticancer human tumor 429239-143-T-J1-PDC patient-derived small cell lung carcinoma cell line growth inhibition [POLQ]; conditions: curve of first compound; second compound 0.316 µM
Please note: IC50 exactly at 100 nM is Condition not met. Only values below 100 nM get Condition met.

Compound	Target Under Test	Qualitative Label
C=CC(=O)N1CCN(c2nc(=O)n(-c3c(C)ccnc3C(C)C)c3nc(-c4c(O)cccc4F)c(F)cc23)C(C)C1 (stereo unspecified) + COC1C(OC(N)=O)C(O)C(Oc2ccc3c(O)c(NC(=O)c4ccc(O)c(CC=C(C)C)c4)c(=O)oc3c2C)OC1(C)C	429239-143-T-J1-PDC complex spheroid viability	Condition not met
CC1COCCN1c1cc(-c2ccnn2C)c2ccnc(-c3ccn[nH]3)c2n1 (stereo unspecified) + Cc1cccc(N(C)C(=O)C2C(O)CCN2c2nc(C)cc(C(F)(F)F)c2C#N)c1	429239-143-T-J1-PDC complex spheroid viability	Condition not met
CC1COCCN1c1cc(C2(O)CC3CCC(C2)O3)c2cnn(-c3ccn[nH]3)c2n1 (stereo unspecified) + Cc1cccc(N(C)C(=O)C2C(O)CCN2c2nc(C)cc(C(F)(F)F)c2C#N)c1	429239-143-T-J1-PDC complex spheroid viability	Condition met
Nc1ccn(C2OC(CO)C(O)C2(F)F)c(=O)n1 (stereo unspecified) + Nc1ccc(C#CCN(C(=O)Cc2ncc(C(F)(F)F)cc2C(F)(F)F)c2ccc(F)cc2)nn1	429239-143-T-J1-PDC complex spheroid viability	Condition met
CC1COCCN1c1cc(C2(S(C)(=N)=O)CC2)nc(-c2ccnc3[nH]ccc23)n1 (stereo unspecified) + Cc1cccc(N(C)C(=O)C2C(O)CCN2c2nc(C)cc(C(F)(F)F)c2C#N)c1	429239-143-T-J1-PDC complex spheroid viability	Condition not met
CCCS(=O)(=O)Nc1ccc(F)c(C(=O)c2c[nH]c3ncc(-c4ccc(Cl)cc4)cc23)c1F + COC1C(OC(N)=O)C(O)C(Oc2ccc3c(O)c(NC(=O)c4ccc(O)c(CC=C(C)C)c4)c(=O)oc3c2C)OC1(C)C	429239-143-T-J1-PDC complex spheroid viability	Condition not met

###

system: 429239-143-T-J1-PDC complex spheroid viability; assay: Anticancer human tumor 429239-143-T-J1-PDC cell line growth inhibition [POLQ]; details: second compound 0.0316 µM; first compound 0.1 µM; stronger effect = lower value;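 further: luminescence signal used as surrogate measure of viable cells; spheroids exposed to compounds for seven days before readout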;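 on viability, T/C: 100% = DMSO vehicle control viability as luminescence relative to vehicle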
Binary call on viability, T/C with cut-off 40%: strictly below means label 1, and equality or higher means label 0.

Compound	Qualitative Label
C=CC(=O)N1CCN(c2nc(=O)n(-c3c(C)ccnc3C(C)C)c3nc(-c4c(O)cccc4F)c(F)cc23)C(C)C1 (stereo not given) + Nc1ccc(C#CCN(C(=O)Cc2ncc(C(F)(F)F)cc2C(F)(F)F)c2ccc(F)cc2)nn1	label 0
CC[C@@]1(O)C(=O)OCc2c1cc1n(c2=O)Cc2cc3c(CN(C)C)c(O)ccc3nc2-1 + Cc1cccc(N(C)C(=O)C2C(O)CCN2c2nc(C)cc(C(F)(F)F)c2C#N)c1	label 1
CC(C)n1c(=O)n(C)c2cnc3cc(F)c(-c4ccc(OCCCN5CCCCC5)nc4)cc3c21 + Cc1cccc(N(C)C(=O)C2C(O)CCN2c2nc(C)cc(C(F)(F)F)c2C#N)c1	label 0
COc1cccc(OCCCN)c1-c1cc(Nc2cnc(C#N)cn2)n[nH]1 + COC1C(OC(N)=O)C(O)C(Oc2ccc3c(O)c(NC(=O)c4ccc(O)c(CC=C(C)C)c4)c(=O)oc3c2C)OC1(C)C	label 0
O=C(c1cc(Cc2n[nH]c(=O)c3ccccc23)ccc1F)N1CCN(C(=O)C2CC2)CC1 + Cc1cccc(N(C)C(=O)C2C(O)CCN2c2nc(C)cc(C(F)(F)F)c2C#N)c1	label 0

###

test system: 429239-143-T-J1-PDC complex spheroid viability; assay: Anticancer human tumor 429239-143-T-J1-PDC cell line growth inhibition [POLQ]; conditions: second compound 10 µM; first compound 1 µM; stronger effect = lower value;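 further: luminescence signal used as surrogate measure of viable cells; spheroids exposed to compounds for seven days before readout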;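 on viability, T/C: 100% = DMSO vehicle control viability as luminescence relative to vehicle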
Each entry below carries its recorded viability, T/C.

Molecule	Target Under Test	viability, T/C / %
C#Cc1c(F)ccc2cc(O)cc(-c3ncc4c(N5CC6CCC(C5)N6)nc(OCC56CCCN5CC(F)C6)nc4c3F)c12 (stereo not given) + COC1C(OC(N)=O)C(O)C(Oc2ccc3c(O)c(NC(=O)c4ccc(O)c(CC=C(C)C)c4)c(=O)oc3c2C)OC1(C)C	429239-143-T-J1-PDC complex spheroid viability	92.5
COc1ccc([C@@H](O)c2cc(-c3ncnc4cc(N5CCOCC5)ccc34)c(F)cc2Cl)nn1 + COC1C(OC(N)=O)C(O)C(Oc2ccc3c(O)c(NC(=O)c4ccc(O)c(CC=C(C)C)c4)c(=O)oc3c2C)OC1(C)C	429239-143-T-J1-PDC complex spheroid viability	78.3
CNCc1ccc(-c2[nH]c3cc(F)cc4c3c2CCNC4=O)cc1 + COC1C(OC(N)=O)C(O)C(Oc2ccc3c(O)c(NC(=O)c4ccc(O)c(CC=C(C)C)c4)c(=O)oc3c2C)OC1(C)C	429239-143-T-J1-PDC complex spheroid viability	55.1
CCc1cc2c(N3CCc4c(cc(Cn5ccnc5)cc4-c4cn(C)nc4C(F)(F)F)C3=O)ccnc2c(OC)n1 + COC1C(OC(N)=O)C(O)C(Oc2ccc3c(O)c(NC(=O)c4ccc(O)c(CC=C(C)C)c4)c(=O)oc3c2C)OC1(C)C	429239-143-T-J1-PDC complex spheroid viability	46.7
CC(C)n1c(=O)n(C)c2cnc3cc(F)c(-c4ccc(OCCCN5CCCCC5)nc4)cc3c21 + COC1C(OC(N)=O)C(O)C(Oc2ccc3c(O)c(NC(=O)c4ccc(O)c(CC=C(C)C)c4)c(=O)oc3c2C)OC1(C)C	429239-143-T-J1-PDC complex spheroid viability	102
C=CC(=O)N1CCN(c2nc(=O)n(-c3c(C)ccnc3C(C)C)c3nc(-c4c(O)cccc4F)c(F)cc23)C(C)C1 (stereo not given) + COC1C(OC(N)=O)C(O)C(Oc2ccc3c(O)c(NC(=O)c4ccc(O)c(CC=C(C)C)c4)c(=O)oc3c2C)OC1(C)C	429239-143-T-J1-PDC complex spheroid viability	87.7
CC1COCCN1c1cc(C2(S(C)(=N)=O)CC2)nc(-c2ccnc3[nH]ccc23)n1 (stereo not given) + Nc1ccc(C#CCN(C(=O)Cc2ncc(C(F)(F)F)cc2C(F)(F)F)c2ccc(F)cc2)nn1	429239-143-T-J1-PDC complex spheroid viability	83.9
COc1cc2cc(C(=O)CCC(=O)O)sc2cc1OC + Nc1ccc(C#CCN(C(=O)Cc2ncc(C(F)(F)F)cc2C(F)(F)F)c2ccc(F)cc2)nn1	429239-143-T-J1-PDC complex spheroid viability	98.2
COc1cc2cc(C(=O)CCC(=O)O)sc2cc1OC + Cc1cccc(N(C)C(=O)C2C(O)CCN2c2nc(C)cc(C(F)(F)F)c2C#N)c1	429239-143-T-J1-PDC complex spheroid viability	120
CCc1cc2c(N3CCc4c(cc(Cn5ccnc5)cc4-c4cn(C)nc4C(F)(F)F)C3=O)cc(C)nc2c(OC)n1 + COC1C(OC(N)=O)C(O)C(Oc2ccc3c(O)c(NC(=O)c4ccc(O)c(CC=C(C)C)c4)c(=O)oc3c2C)OC1(C)C	429239-143-T-J1-PDC complex spheroid viability	44

###

test system: 429239-143-T-J1-PDC complex spheroid viability; assay: Anticancer human tumor 429239-143-T-J1-PDC cell line growth inhibition [POLQ]; conditions: second compound 0.316 µM; first compound 0.1 µM; stronger effect = lower value;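 further: luminescence signal used as surrogate measure of viable cells; spheroids exposed to compounds for seven days before readout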;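 on viability, T/C: 100% = DMSO vehicle control viability as luminescence relative to vehicle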

Compound	viability, T/C / %
COc1cccc(OCCCN)c1-c1cc(Nc2cnc(C#N)cn2)n[nH]1 + Cc1cccc(N(C)C(=O)C2C(O)CCN2c2nc(C)cc(C(F)(F)F)c2C#N)c1	67.2
CCCS(=O)(=O)Nc1ccc(F)c(C(=O)c2c[nH]c3ncc(-c4ccc(Cl)cc4)cc23)c1F + COC1C(OC(N)=O)C(O)C(Oc2ccc3c(O)c(NC(=O)c4ccc(O)c(CC=C(C)C)c4)c(=O)oc3c2C)OC1(C)C	96.3
CCc1cc2c(N3CCc4c(cc(Cn5ccnc5)cc4-c4cn(C)nc4C(F)(F)F)C3=O)ccnc2c(OC)n1 + COC1C(OC(N)=O)C(O)C(Oc2ccc3c(O)c(NC(=O)c4ccc(O)c(CC=C(C)C)c4)c(=O)oc3c2C)OC1(C)C	74.3
COc1cccc(OCCCN)c1-c1cc(Nc2cnc(C#N)cn2)n[nH]1 + Nc1ccc(C#CCN(C(=O)Cc2ncc(C(F)(F)F)cc2C(F)(F)F)c2ccc(F)cc2)nn1	65.3
Cn1ncnc1[C@H]1c2n[nH]c(=O)c3cc(F)cc(c23)N[C@@H]1c1ccc(F)cc1 + Cc1cccc(N(C)C(=O)C2C(O)CCN2c2nc(C)cc(C(F)(F)F)c2C#N)c1	29.2

###

system: 429239-143-T-J1-PDC complex spheroid viability; assay: Anticancer human tumor 429239-143-T-J1-PDC cell line growth inhibition [POLQ]; conditions: second compound 0.0316 µM; first compound 10 µM; stronger effect = lower value;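 further: luminescence signal used as surrogate measure of viable cells; spheroids exposed to compounds for seven days before readout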;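 on viability, T/C: 100% = DMSO vehicle control viability as luminescence relative to vehicle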
Hi! Just check whether viability, T/C is below 50%. Below gives true, equal or above gives false.

Molecule	Qualitative Label
Nc1ccn(C2OC(CO)C(O)C2(F)F)c(=O)n1 (stereo not given) + Cc1cccc(N(C)C(=O)C2C(O)CCN2c2nc(C)cc(C(F)(F)F)c2C#N)c1	true
O=c1[nH]cc(F)c(=O)[nH]1 + Cc1cccc(N(C)C(=O)C2C(O)CCN2c2nc(C)cc(C(F)(F)F)c2C#N)c1	false
COc1ccc([C@@H](O)c2cc(-c3ncnc4cc(N5CCOCC5)ccc34)c(F)cc2Cl)nn1 + Nc1ccc(C#CCN(C(=O)Cc2ncc(C(F)(F)F)cc2C(F)(F)F)c2ccc(F)cc2)nn1	true
CC(C)n1c(=O)n(C)c2cnc3cc(F)c(-c4ccc(OCCCN5CCCCC5)nc4)cc3c21 + COC1C(OC(N)=O)C(O)C(Oc2ccc3c(O)c(NC(=O)c4ccc(O)c(CC=C(C)C)c4)c(=O)oc3c2C)OC1(C)C	false
